Value source: patent US20260092093A1

Target: T1, hIL-18BP-hFc (human, UniProt O95998 31-194, limits assumed)
T1 sequence (looked up): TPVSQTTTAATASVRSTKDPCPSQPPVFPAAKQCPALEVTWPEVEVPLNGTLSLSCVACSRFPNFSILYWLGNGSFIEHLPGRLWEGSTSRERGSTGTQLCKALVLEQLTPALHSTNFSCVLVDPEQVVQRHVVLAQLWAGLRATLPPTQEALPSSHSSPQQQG
Assay: cell-based or functional assay
Measured EC50 Fold Change (+BP/-BP), PBMC assay (hIFNγ release) by item
Numbers only here, please. The scale is fold.

- Binder: "IL-18 variant polypeptide M24 (ligand) YFPKLRSKLSVIRNLNDQVLFIDQGNRPLFEDMTDSDCRDNAPRTIFIISMYKYSTSRGMAVTISVKCEKISTLSCENKIISFKEMNPPDNIKDTKSDIIFFQRSVPGHDNKMQFESSSYEGYFLACEKERDLFKLILKKEDELGDRSIMFTVQNED"
  Unit label: "fold"
  Test result: 1.48
- Binder: "IL-18 variant polypeptide M12 (ligand) YFPKLKSKLSVIRNLNDQVLFIDQGNRPLFEDMTDSDCRDNAPRTIFIISMYKGSGARGMAVTISVKCEKISTLSCENKIISFKEMNPPDTIKDTKSDIIFFQRSVPGHDNKMQFESSSYEGYFLACEKERDLFKLILKKEDELGDRSIMFTVQNED"
  Unit label: "fold"
  Test result: 1.05

Below: the item to evaluate.
// returns reported EC50 Fold Change (+BP/-BP), PBMC assay (hIFNγ release) for input IL-18 variant polypeptide M29 (ligand) YFPKLMSKLSVIRNLNDQVLFIDQGNRPLFEDMTDSDCRDNAPRTIFIISMYKFSDRRGMAVTISVKCEKISTLSCENKIISFKEMNPPDPIKDTKSDIIFFQRSVPGHDNKMQFESSSYEGYFLACEKERDLFKLILKKEDELGDRSIMFTVQNED 0.69
